The measured values listed here are drawn from the Human Domainome abundance scans (Beltran et al. 2025).

B1: E3 ubiquitin-protein ligase Midline-1, residues 172 to 214; numbered along this chain, O15344 (parent)
chain: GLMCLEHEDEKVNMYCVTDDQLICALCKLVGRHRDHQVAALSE

# Variants of: B1
# assay remarks: abundance fitness (aPCA) (normalised: wild type 0, dead -1); higher = more abundant; growth selection in yeast, the domain comes from the species named
# experimental context: Homo sapiens
The entries below are paired with their reported abundance fitness.

[
  {
    "residue change": "E10P",
    "abundance fitness": -0.498
  },
  {
    "residue change": "S42D",
    "abundance fitness": 0.209
  },
  {
    "residue change": "M14A",
    "abundance fitness": 0.043
  },
  {
    "residue change": "D35H",
    "abundance fitness": -0.177
  },
  {
    "residue change": "L26Q",
    "abundance fitness": 0.387
  },
  {
    "residue change": "L22T",
    "abundance fitness": 0.204
  },
  {
    "residue change": "E43P",
    "abundance fitness": -0.076
  },
  {
    "residue change": "C4S",
    "abundance fitness": -0.295
  },
  {
    "residue change": "Q37W",
    "abundance fitness": -0.6
  },
  {
    "residue change": "C16M",
    "abundance fitness": -0.674
  },
  {
    "residue change": "D35P",
    "abundance fitness": -0.299
  },
  {
    "residue change": "Y15Q",
    "abundance fitness": 0.315
  },
  {
    "residue change": "G31D",
    "abundance fitness": 0.111
  },
  {
    "residue change": "A25M",
    "abundance fitness": -0.23
  },
  {
    "residue change": "V38L",
    "abundance fitness": -0.035
  },
  {
    "residue change": "E8P",
    "abundance fitness": 0.186
  },
  {
    "residue change": "M3I",
    "abundance fitness": 0.089
  },
  {
    "residue change": "K28G",
    "abundance fitness": 0.013
  },
  {
    "residue change": "R34L",
    "abundance fitness": -0.376
  },
  {
    "residue change": "H36R",
    "abundance fitness": -0.669
  },
  {
    "residue change": "V12Y",
    "abundance fitness": -0.02
  },
  {
    "residue change": "A40G",
    "abundance fitness": 0.046
  },
  {
    "residue change": "G31F",
    "abundance fitness": -0.519
  },
  {
    "residue change": "E43K",
    "abundance fitness": 0.091
  },
  {
    "residue change": "V38N",
    "abundance fitness": -0.243
  },
  {
    "residue change": "K28V",
    "abundance fitness": -0.396
  },
  {
    "residue change": "H36W",
    "abundance fitness": -1.01
  },
  {
    "residue change": "T18M",
    "abundance fitness": -0.394
  },
  {
    "residue change": "K11A",
    "abundance fitness": -0.107
  },
  {
    "residue change": "G31L",
    "abundance fitness": -0.47
  },
  {
    "residue change": "D19R",
    "abundance fitness": -0.65
  },
  {
    "residue change": "T18C",
    "abundance fitness": -0.256
  },
  {
    "residue change": "E10M",
    "abundance fitness": -0.029
  }
]
